All values here come from PubChem BioAssay (Tox21).

- experiment.description: qHTS assay to identify small molecule agonists of the peroxisome proliferator-activated receptor delta (PPARd) signaling pathway - cell viability counter screen (AID 743211); also: % is scaled to controls: 0 for no effect and ±100 for the full control effect; nearly all actives have a fitted effect of over 55% in size
- cond: PPARd-bla HEK293H viability, CellTiter-Glo luminescence, 17 h; series mostly up to 62.6 µM
Results filed as inconclusive are left out. Activity calls are given as the source filed them. Calls follow the shape of the dose curve; as a rule, active = well fitted cell-killing curve with a large enough effect in the repeat runs; inconclusive = weak or mixed curves; inactive = no such curve, though single readings can be large or run the other way.
Return exactly one item of active, inactive

Consider the following illustrative entries.
CN(CCOc1ccc(CC2SC(=O)NC2=O)cc1)c1ccccn1 (configuration not stated) :: inactive
C=C(C)C(=O)OCCC[Si](OC)(OC)OC :: inactive
COC(=O)c1ccccc1O :: inactive
C=C(C#N)C(=O)OCC :: inactive
CCCCCCCCCC(=O)O :: inactive
Cc1ccc(C)c(C)c1 :: inactive
CCOC(=O)C1OC1c1ccccc1 (configuration not stated) :: inactive
CCCCC(CC)C(=O)OCCOCCOCCOC(=O)C(CC)CCCC (configuration not stated) :: inactive

Now for another entry.
Would you mind telling me which call this test gave `O=C1N=C(O)CN1/N=C/c1ccc(-c2ccc([N+](=O)[O-])cc2)o1` ?
inactive

----------
- experiment.description: Human pregnane X receptor (PXR) small molecule agonists, qHTS cell viability counter screen (AID 1346977); also: % is scaled to controls: 0 for no effect and ±100 for the full control effect; nearly all actives have a fitted effect of over 50% in size
- cond: PXR-Luc HepG2 viability, CellTiter-Fluor, 24 h; series mostly up to 92.4 µM
Inconclusive results are not listed. Calls of active or inactive are those of the source. Calls follow the shape of the dose curve; as a rule, active = well fitted cell-killing curve with a large enough effect in the repeat runs; inconclusive = weak or mixed curves, or effect the other way; inactive = flat fitted curve, though single readings scatter.
Hello, when you answer, please use one of the following outcomes: active, inactive

Example results:
Cc1ccc(N)c(S(=O)(=O)O)c1 :: inactive
COCC(C)O (stereo not given) :: inactive
CC1Cc2ccccc2N1NC(=O)c1ccc(Cl)c(S(N)(=O)=O)c1 (stereo not given) :: inactive
CN(C)c1cccc(O)c1 :: inactive
CC(C)n1c(/C=C/[C@@H](O)C[C@@H](O)CC(=O)O)c(-c2ccc(F)cc2)c2ccccc21 :: inactive

Hi, sorry to bother you, what did the test record for CN(CCOc1ccc(CC2SC(=O)NC2=O)cc1)c1ccccn1 (stereo not given) ?
inactive

Hi, do you know how `CC(C)Cc1ccccc1` came out in this test?
inactive

Dear colleague, could you share the recorded outcome for `CC(C)(N=C=O)c1cccc(C(C)(C)N=C=O)c1` when you have a moment?
inactive

Recorded test outcome, item `Clc1cc(Cl)c(Cl)cc1Cl`
inactive

----------
- experiment.description: qHTS assay to identify small molecule antagonists of the peroxisome proliferator-activated receptor delta (PPARd) signaling pathway - cell viability counter screen (AID 743213); also: % is scaled to controls: 0 for no effect and ±100 for the full control effect; nearly all actives have a fitted effect of over 50% in size
- cond: PPARd-bla HEK293H viability, CellTiter-Glo luminescence, 17 h; series mostly up to 62 µM
Inconclusive results are not listed. Active and inactive are the calls of the source. Calls follow the shape of the dose curve; as a rule, active = well fitted cell-killing curve with a large enough effect in the repeat runs; inconclusive = weak or mixed curves; inactive = no such curve, though single readings can be large or run the other way.
measured.property: outcome

CCCCNC(N)=O :: inactive
CN(C)c1ccc(C(=N)c2ccc(N(C)C)cc2)cc1 :: inactive
CCOC(=O)/C=C\C(=O)OCC :: inactive
NC(=O)NNc1ccccc1 :: inactive
COC(=O)Nc1nc2ccc(Sc3ccccc3)cc2[nH]1 :: inactive
CC(C)(N=C=O)c1cccc(C(C)(C)N=C=O)c1 :: inactive
Nc1cc(-c2ccncc2)c[nH]c1=O :: inactive
OC[C@@H](O)[C@@H](O)[C@H](O)[C@@H](O)CO :: inactive
CCc1ccc(O)cc1 :: inactive
CS(=O)(=O)c1ccc([C@@H](O)[C@@H](CO)NC(=O)C(Cl)Cl)cc1 :: inactive

Would you mind telling me what outcome value was observed for `O=C(Oc1ccccc1)c1ccc(O)cc1` ?
inactive

Need outcome, item CC1CC(OC(=O)c2ccccc2O)CC(C)(C)C1 (stereo not given)
inactive

Any idea what outcome was measured for CCCCC(CC)C(=O)OCCOCCOCCOC(=O)C(CC)CCCC (stereo not given) ?
inactive

Field request: outcome | item: `O=c1c(-c2ccc(O)cc2)coc2cc(O)ccc12`
inactive

What value of outcome has been reported for the following compound? `Nc1nc2ncc(CNc3ccc(C(=O)N[C@@H](CCC(=O)O)C(=O)O)cc3)nc2c(=O)[nH]1`
inactive

----------
- experiment.description: qHTS RealTime-Glo MT Cell Viability Assay in HEK293 cells - 40 hour (AID 1224874); also: % is scaled to controls: 0 for no effect and ±100 for the full control effect; nearly all actives have a fitted effect of over 50% in size
- cond: RealTime-Glo luminescence; active compounds read low
Inconclusive results are not listed.
measured.property: max response (%)
State just the number; it will be interpreted in %.

// worked examples, max response included
O=C(c1ccc(O)cc1)c1ccc(O)cc1O :: -21.4
CCc1ccccc1O :: -2.02
CN(CCOc1ccc(CC2SC(=O)NC2=O)cc1)c1ccccn1 (stereo unspecified) :: -1.82
CC(C)(N=C=O)c1cccc(C(C)(C)N=C=O)c1 :: 0.966
Oc1ccc2ccccc2c1N=Nc1ccccc1 :: 32.3

Now for the molecule whose max response we want.
Query (molecule): `O=S(=O)(O)c1cc(S(=O)(=O)O)c2c(N=Nc3ccccc3)c(O)ccc2c1` ; field requested: max response
-20.2

----------
- experiment.description: qHTS assay for identifying genotoxic compounds that show differential cytotoxicity against isogenic chicken DT40 cell lines with known DNA damage response pathways - Rad54/Ku70 mutant cell line (AID 743015); also: nearly all actives have a fitted effect of over 60% in size
- cond: DT40 Rad54/Ku70 mutant viability, CellTiter-Glo, 40 h; series mostly up to 66.8 µM
Records with an inconclusive call do not appear. Calls of active or inactive are those of the source. Calls follow the shape of the dose curve; as a rule, active = well fitted cell-killing curve with a large enough effect in the repeat runs; inconclusive = weak or mixed curves; inactive = no such curve, though single readings can be large or run the other way.
Result category, one only: active, inactive

CCC(=O)O :: inactive
CCCCNC(N)=O :: inactive
Oc1ccc2ccccc2c1 :: inactive
CCCCC/C=C\C/C=C\CCCCCCCC(=O)OC :: active
C/C=C(C)/C=C/C=C(C)C :: active
Cc1ccc(C)c(C)c1 :: inactive
CCC(C)C=O (centres undefined) :: inactive
CC1=CC[C@H]2C[C@@H]1C2(C)C :: inactive

Okay, now this molecule:
Field: outcome | Entry: `CCCCCCOC(C)=O`
active

----------
- experiment.description: qHTS assay to identify small molecule agonists of the androgen receptor (AR) signaling pathway in the presence of an antagonist - cell viability counter screen (AID 1259379); also: nearly all actives have a fitted effect of over 25% in size
- cond: MDA-kb2 viability, CellTiter-Fluor, 16 h; series mostly up to 92.4 µM
Inconclusive results are not listed. The source made the active and inactive calls. Calls follow the shape of the dose curve; as a rule, active = well fitted cell-killing curve with a large enough effect in the repeat runs; inconclusive = weak or mixed curves, or effect the other way; inactive = flat fitted curve, though single readings scatter.
Parameter call: string, one of 1 (active), 0 (inactive)

CC1(C)CC(N=C=O)CC(C)(CN=C=O)C1 (configuration not stated) :: 0

Outcome logged for `CCCCC/C=C\C/C=C\CCCCCCCC(=O)OC` in this assay:
0

I would be grateful if you could indicate the recorded call for `O=C(Cl)c1c(Cl)c(Cl)c(C(=O)Cl)c(Cl)c1Cl` .
0

Could you check what this test reported for `CC(C)(C)C(=O)C1C(=O)c2ccccc2C1=O` ?
1

Check the results log: what was the call for `CCCCOCCO` ?
0

# fetch the recorded call for CN(CCOc1ccc(CC2SC(=O)NC2=O)cc1)c1ccccn1 (configuration not stated) here
0

In this assay, the call recorded for CC(C)(C)C1CCC(O)CC1 (configuration not stated) was what?
0

----------
- system: Progesterone receptor (Homo sapiens)
- experiment.description: qHTS assay to identify small molecule agonists of the progesterone receptor (PR) signaling pathway (AID 1346784); also: % is scaled to controls: 0 for no effect and ±100 for the full control effect; nearly all actives have a fitted effect of over 30% in size
- cond: PR-UAS-bla HEK293T, beta-lactamase FRET ratio, 16 h; series mostly up to 92.4 µM
- Description: U.S. Tox21 Program National Center for Advancing Translational Sciences [NCATS] NIH Chemical Genomics Center [NCGC] U.S. Environmental Protection Agency [EPA] National Institutes of Environmental Health Sciences [NIEHS] National Toxicology Program [NTP] U.S. Food and Drug Administration [FDA] […] Endocrine disrupting chemicals (EDCs) and their interactions with steroid hormone receptors like PR causes disruption of normal endocrine function. […]
Inconclusive results are not listed. Active and inactive are the calls of the source. Calls come from the whole dose curve.
measured.property: outcome

C=C1CC[C@H](O)CC1=C/C=C1\CCC[C@]2(C)[C@@H]([C@H](C)/C=C/[C@H](C)C(C)C)CC[C@@H]12 :: inactive
Oc1ccc(OCc2ccccc2)cc1 :: inactive
O=C(Oc1ccccc1)c1ccc(O)cc1 :: inactive
CC(C)(N=C=O)c1cccc(C(C)(C)N=C=O)c1 :: inactive
CS(=O)(=O)Nc1ccc([N+](=O)[O-])cc1Oc1ccccc1 :: inactive

Give the measured outcome of `COCC(=O)O` .
inactive

Looking for the measured outcome of `Cc1ccc(N)c(S(=O)(=O)O)c1` , can you help?
inactive

Please report the recorded outcome for `O=C1CCCCC1` .
inactive

Dear colleague, I am looking for the recorded outcome of the following molecule: `C[C@@H](O)[C@H]1C(=O)N2C(C(=O)O)=C(S[C@@H]3CN[C@H](C(=O)N(C)C)C3)[C@H](C)[C@H]12`
inactive

Data request, read-out outcome, for CCC(C)C=O (stereo not given)
inactive

Which outcome value is on record for `CCOC(=O)/C=C\C(=O)OCC` ?
inactive

What value of outcome has been recorded for this entry: `CCCCCCCCCC(=O)O`
inactive

Returns the measured outcome for the input molecule. Input: `O=S(=O)(Oc1ccc(Cl)cc1Cl)c1ccccc1`
inactive

// query outcome value for entry `C=CC(=O)OCCCCCCCC(C)C`
inactive

Fill blank: measured outcome of the molecule `Clc1cc(Cl)c(Cl)cc1Cl` is ____.
inactive
